The measured values listed here are drawn from the supplement of paper PMC10567573.

B1: FAM107A (parent)
chain: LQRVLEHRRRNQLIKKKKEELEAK

# Variants of: B1
# ASSAY: protein stability index of a GFP-peptide fusion (GPS, HEK-293T) (PSI 1-6); higher = more stable;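 further: lentivirally expressed fusions sorted by FACS into six bins by GFP to DsRed ratio, PSI derived from sequencing read proportions per bin multiplied by bin number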
# MEASUREMENT SETUP: c terminus: a fixed tail appended
Listed next: entries and their corresponding protein stability index.

{"VARIANT SPEC": "K16A", "protein stability index": 4.15}
{"VARIANT SPEC": "E20Y", "protein stability index": 2.94}
{"VARIANT SPEC": "L1E", "protein stability index": 4.79}
{"VARIANT SPEC": "K18C", "protein stability index": 3.37}
{"VARIANT SPEC": "K24I", "protein stability index": 3.57}
{"VARIANT SPEC": "K15H", "protein stability index": 4.23}
{"VARIANT SPEC": "Q12E", "protein stability index": 4.11}
{"VARIANT SPEC": "L5I", "protein stability index": 3.2}
{"VARIANT SPEC": "R9C", "protein stability index": 3.23}
{"VARIANT SPEC": "E6F", "protein stability index": 3.63}
{"VARIANT SPEC": "V4A", "protein stability index": 4.09}
{"VARIANT SPEC": "E6W", "protein stability index": 3.02}
{"VARIANT SPEC": "A23Y", "protein stability index": 3.48}
{"VARIANT SPEC": "K18N", "protein stability index": 3.41}
{"VARIANT SPEC": "R9A", "protein stability index": 4.4}
{"VARIANT SPEC": "K17D", "protein stability index": 4.78}
{"VARIANT SPEC": "E20F", "protein stability index": 2.52}
{"VARIANT SPEC": "V4K", "protein stability index": 4.39}
{"VARIANT SPEC": "L1D", "protein stability index": 5.36}
{"VARIANT SPEC": "R9I", "protein stability index": 2.72}
{"VARIANT SPEC": "I14D", "protein stability index": 4.39}
{"VARIANT SPEC": "R10F", "protein stability index": 3.21}
{"VARIANT SPEC": "H7P", "protein stability index": 3.4}
{"VARIANT SPEC": "A23S", "protein stability index": 3.63}
{"VARIANT SPEC": "L5P", "protein stability index": 4.69}
{"VARIANT SPEC": "N11C", "protein stability index": 2.83}
{"VARIANT SPEC": "L1F", "protein stability index": 3.13}
{"VARIANT SPEC": "E22K", "protein stability index": 4.21}
{"VARIANT SPEC": "Q12P", "protein stability index": 4.12}
{"VARIANT SPEC": "A23N", "protein stability index": 3.56}
{"VARIANT SPEC": "K15A", "protein stability index": 4.16}
{"VARIANT SPEC": "E22I", "protein stability index": 2.58}
{"VARIANT SPEC": "A23G", "protein stability index": 3.7}
{"VARIANT SPEC": "E22D", "protein stability index": 2.62}
{"VARIANT SPEC": "K24W", "protein stability index": 2.88}
{"VARIANT SPEC": "R8L", "protein stability index": 2.15}
{"VARIANT SPEC": "K18Q", "protein stability index": 3.04}
{"VARIANT SPEC": "E22V", "protein stability index": 2.88}
{"VARIANT SPEC": "A23Q", "protein stability index": 3.87}
{"VARIANT SPEC": "L5H", "protein stability index": 5.17}
{"VARIANT SPEC": "E6M", "protein stability index": 3.32}
{"VARIANT SPEC": "H7M", "protein stability index": 3.15}
{"VARIANT SPEC": "Q12D", "protein stability index": 3.74}
{"VARIANT SPEC": "L1Q", "protein stability index": 5.11}
{"VARIANT SPEC": "K17Q", "protein stability index": 3.8}
{"VARIANT SPEC": "H7G", "protein stability index": 4.29}
